Consider the following compounds; for each one, report its IC50.
- EXPERIMENTAL_TARGET: Recombinant wild type LRRK2 protein (Homo sapiens (Human), UniProt Q5S007)
- Sequence (Q5S007 whole entry): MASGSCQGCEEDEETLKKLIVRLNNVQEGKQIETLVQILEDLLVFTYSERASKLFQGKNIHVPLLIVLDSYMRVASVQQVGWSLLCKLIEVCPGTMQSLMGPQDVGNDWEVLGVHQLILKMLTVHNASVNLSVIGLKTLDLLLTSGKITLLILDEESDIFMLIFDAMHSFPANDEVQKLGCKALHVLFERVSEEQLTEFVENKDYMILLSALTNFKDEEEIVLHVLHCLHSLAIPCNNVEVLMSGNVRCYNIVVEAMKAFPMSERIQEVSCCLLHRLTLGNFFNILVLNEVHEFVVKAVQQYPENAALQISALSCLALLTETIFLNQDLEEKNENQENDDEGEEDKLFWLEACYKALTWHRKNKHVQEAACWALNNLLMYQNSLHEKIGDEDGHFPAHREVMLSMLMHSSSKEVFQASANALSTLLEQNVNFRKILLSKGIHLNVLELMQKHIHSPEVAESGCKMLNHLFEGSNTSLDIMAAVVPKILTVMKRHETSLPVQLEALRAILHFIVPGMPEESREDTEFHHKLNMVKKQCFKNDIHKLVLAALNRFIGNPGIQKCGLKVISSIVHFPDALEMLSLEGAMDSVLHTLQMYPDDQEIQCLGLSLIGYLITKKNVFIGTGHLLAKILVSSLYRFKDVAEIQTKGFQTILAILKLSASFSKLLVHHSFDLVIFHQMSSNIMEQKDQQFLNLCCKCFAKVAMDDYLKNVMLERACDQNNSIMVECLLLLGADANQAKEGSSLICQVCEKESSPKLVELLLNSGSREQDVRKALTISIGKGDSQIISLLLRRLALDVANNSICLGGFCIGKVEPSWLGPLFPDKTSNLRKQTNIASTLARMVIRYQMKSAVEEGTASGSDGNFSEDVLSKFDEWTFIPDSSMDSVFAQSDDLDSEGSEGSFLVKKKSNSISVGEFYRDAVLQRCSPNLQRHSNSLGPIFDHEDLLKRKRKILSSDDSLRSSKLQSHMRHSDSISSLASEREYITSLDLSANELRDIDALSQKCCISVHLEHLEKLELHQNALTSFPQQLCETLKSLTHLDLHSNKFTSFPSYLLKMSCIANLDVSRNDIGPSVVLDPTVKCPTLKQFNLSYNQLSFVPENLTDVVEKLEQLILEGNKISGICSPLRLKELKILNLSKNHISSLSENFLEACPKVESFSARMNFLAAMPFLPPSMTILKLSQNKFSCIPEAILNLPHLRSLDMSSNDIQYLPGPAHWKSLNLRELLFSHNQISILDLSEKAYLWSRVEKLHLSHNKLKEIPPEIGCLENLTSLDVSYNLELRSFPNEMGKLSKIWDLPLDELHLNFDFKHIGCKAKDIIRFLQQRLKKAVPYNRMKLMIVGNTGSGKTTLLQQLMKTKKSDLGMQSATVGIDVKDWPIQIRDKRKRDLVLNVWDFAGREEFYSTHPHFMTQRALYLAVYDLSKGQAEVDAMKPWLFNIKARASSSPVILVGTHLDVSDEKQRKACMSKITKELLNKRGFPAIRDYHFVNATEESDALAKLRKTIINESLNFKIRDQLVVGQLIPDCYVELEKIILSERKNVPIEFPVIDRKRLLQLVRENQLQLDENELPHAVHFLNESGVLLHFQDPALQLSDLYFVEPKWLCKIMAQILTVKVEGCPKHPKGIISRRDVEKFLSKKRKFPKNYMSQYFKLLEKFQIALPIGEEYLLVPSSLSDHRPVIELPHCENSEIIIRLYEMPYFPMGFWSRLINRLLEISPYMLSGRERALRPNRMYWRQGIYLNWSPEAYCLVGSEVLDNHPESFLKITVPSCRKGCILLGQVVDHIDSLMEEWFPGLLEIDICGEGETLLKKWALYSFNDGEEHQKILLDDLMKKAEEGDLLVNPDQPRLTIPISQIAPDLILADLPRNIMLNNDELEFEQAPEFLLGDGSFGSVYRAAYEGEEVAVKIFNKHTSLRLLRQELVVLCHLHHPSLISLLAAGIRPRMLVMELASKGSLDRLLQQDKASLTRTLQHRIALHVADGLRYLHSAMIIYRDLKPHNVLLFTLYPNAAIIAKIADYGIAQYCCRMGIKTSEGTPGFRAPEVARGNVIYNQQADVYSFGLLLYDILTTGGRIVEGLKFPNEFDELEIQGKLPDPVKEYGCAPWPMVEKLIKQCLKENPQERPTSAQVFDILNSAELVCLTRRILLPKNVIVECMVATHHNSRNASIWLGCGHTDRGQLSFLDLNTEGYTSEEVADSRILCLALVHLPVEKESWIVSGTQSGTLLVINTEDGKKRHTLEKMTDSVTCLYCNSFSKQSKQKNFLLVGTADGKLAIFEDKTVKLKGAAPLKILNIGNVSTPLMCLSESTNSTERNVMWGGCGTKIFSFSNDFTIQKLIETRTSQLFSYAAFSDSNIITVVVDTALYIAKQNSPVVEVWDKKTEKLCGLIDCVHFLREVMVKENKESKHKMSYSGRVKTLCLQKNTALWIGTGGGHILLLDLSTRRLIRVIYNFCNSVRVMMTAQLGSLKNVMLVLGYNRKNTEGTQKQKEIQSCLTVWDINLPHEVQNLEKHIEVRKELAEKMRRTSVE
- EXPERIMENT_DESCRIPTION: LRRK2 kinase activity, LanthaScreen TR-FRET assay (wild type)
- SETTINGS: LRRKtide 400 nM, 25 μM ATP, 60 min; read-out: LRRK2 WT IC50

Requested field: IC50. Item: N#Cc1cc(C(=O)Nc2ccc3[nH]nc(-c4ccoc4)c3c2)no1
< 100 nM

Requested field: IC50. Item: C=C(C)c1c(C#N)cccc1C(=O)Nc1ccc2[nH]nc(-c3cnco3)c2c1
< 100 nM

Requested field: IC50. Item: Cc1c(C#N)cnc(C(=O)Nc2ccc3[nH]nc(-c4cnn(C5COC5)c4)c3c2)c1C
< 100 nM

Requested field: IC50. Item: Cc1c(C#N)cnc(C(=O)Nc2ccc3[nH]nc(C4(C)CC4)c3c2)c1C
1000 to 10000 nM
